Catalogue of pIC50 values
System Tested: Gag-Pol polyprotein [600-1027,R876K]/[600-1155] (Human immunodeficiency virus 1, UniProt P03366, R876K)
Construct: 600-1027; 600-1155
Protocol Description: HIV-1 RT Assay
Answer as the number alone; pIC50 is minus log10 of concentration in mol/L.

| Smiles Record | pIC50 |
| --- | --- |
| CCN1c2ncc(CS(=O)(=O)c3ccccc3)cc2C(=O)N(C)c2ccc(Cl)nc21 | 7.00 |

Now, please, on to the next molecule.
Consider the molecule shown here: "CCN1c2ncc(COc3cc[n+]([O-])c(C)c3)cc2C(=O)N(C)c2ccc(Cl)nc21" What is its recorded pIC50? 7.00

====

System Tested: Gag-Pol polyprotein [600-1027,R876K]/[600-1155] (Human immunodeficiency virus 1, UniProt P03366, R876K)
Construct: 600-1027; 600-1155
Protocol Description: HIV-1 RT Assay
Experimental Setup: pH 7.8; 22 °C
Value Kind: pIC50
On this scale, pIC50 is minus log10 of a concentration expressed in M (mol/L).

Given the entry "CCN1c2ncc(COc3ccccc3O)cc2C(=O)N(C)c2ccc(Cl)nc21" , report its measured pIC50. 7.00

====

System Tested: Gag-Pol polyprotein [600-1027,Y780C]/[600-1155,Y780C] (Human immunodeficiency virus 1, UniProt P03366, Y780C)
Construct: 600-1027; 600-1155
Protocol Description: HIV-1 RT Assay
Experimental Setup: pH 7.8; 22 °C
Value Kind: IC50
Record the result as a number with its unit.

Given "CCN1c2ncc(CNc3cccc(N)c3)cc2C(=O)N(C)c2ccc(Cl)nc21" , state its recorded IC50. 100 nM
